Value source: ChEMBL document CHEMBL1134943

Molecular target: Retinoic acid receptor gamma (Homo sapiens, UniProt P13631)
Sequence (P13631 whole entry): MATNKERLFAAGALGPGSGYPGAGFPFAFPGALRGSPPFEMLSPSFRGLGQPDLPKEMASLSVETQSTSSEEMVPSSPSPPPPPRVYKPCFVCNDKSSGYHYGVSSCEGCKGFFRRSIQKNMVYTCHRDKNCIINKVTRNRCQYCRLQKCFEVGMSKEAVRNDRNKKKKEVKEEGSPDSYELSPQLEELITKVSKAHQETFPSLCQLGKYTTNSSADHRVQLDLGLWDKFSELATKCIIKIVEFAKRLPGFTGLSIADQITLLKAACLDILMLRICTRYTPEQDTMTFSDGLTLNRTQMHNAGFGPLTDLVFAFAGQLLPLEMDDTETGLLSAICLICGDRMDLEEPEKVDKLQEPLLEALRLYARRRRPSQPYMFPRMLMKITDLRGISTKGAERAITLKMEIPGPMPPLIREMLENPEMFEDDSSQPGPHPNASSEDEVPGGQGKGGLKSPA
Experiment: Effective concentration for retinoic acid receptor RAR gamma transcriptional activation
pEC50: −log10 of the molar value.
Reported pEC50 values follow for various compounds
endpoint-label: pEC50

molecule-smiles	value-operator	data-value
CC1(C)CCC(C)(C)c2cc(C(=O)Nc3ccc(C(=O)O)c(F)c3)ccc21	=	6.46
CC1(C)CCC(C)(C)c2cc(C(=O)Nc3cc(F)c(C(=O)O)c(F)c3)c(O)cc21	<	6.00

###

Reported pKd values follow for various molecules
Target: Retinoic acid receptor gamma (Homo sapiens)
Sequence (P13631 whole entry): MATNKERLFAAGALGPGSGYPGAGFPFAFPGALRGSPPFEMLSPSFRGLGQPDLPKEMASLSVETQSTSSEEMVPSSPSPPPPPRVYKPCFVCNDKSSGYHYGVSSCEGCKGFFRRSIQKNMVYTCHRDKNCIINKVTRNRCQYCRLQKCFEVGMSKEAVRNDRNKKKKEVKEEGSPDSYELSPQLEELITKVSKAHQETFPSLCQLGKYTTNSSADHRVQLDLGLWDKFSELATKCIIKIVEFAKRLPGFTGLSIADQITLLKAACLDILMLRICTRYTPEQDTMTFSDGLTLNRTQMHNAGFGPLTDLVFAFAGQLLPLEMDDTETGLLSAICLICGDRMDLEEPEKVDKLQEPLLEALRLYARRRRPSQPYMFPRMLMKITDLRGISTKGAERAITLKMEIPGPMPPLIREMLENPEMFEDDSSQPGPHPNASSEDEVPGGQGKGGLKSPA
pKd: −log10 of the molar value.
endpoint-label: pKd

molecule-smiles	value-operator	data-value
CC1(C)CCC(C)(C)c2c1cc(C(=O)Nc1cc(F)c(C(=O)O)c(F)c1)c(O)c2Cl	<	4.00
CC1(C)CCC(C)(C)c2c1cc(C(=O)Nc1cc(F)c(C(=O)O)c(F)c1)c(O)c2Br	<	4.00
CC1(C)CCC(C)(C)c2cc(C(=O)Nc3cc(F)c(C(=O)O)c(F)c3)c(O)cc21	=	5.25
CC1(C)CCC(C)(C)c2cc(C(=O)Nc3ccc(C(=O)O)c(F)c3)ccc21	=	6.00
